Target: UniProtKB P12822
Sequence (P12822 34-1310): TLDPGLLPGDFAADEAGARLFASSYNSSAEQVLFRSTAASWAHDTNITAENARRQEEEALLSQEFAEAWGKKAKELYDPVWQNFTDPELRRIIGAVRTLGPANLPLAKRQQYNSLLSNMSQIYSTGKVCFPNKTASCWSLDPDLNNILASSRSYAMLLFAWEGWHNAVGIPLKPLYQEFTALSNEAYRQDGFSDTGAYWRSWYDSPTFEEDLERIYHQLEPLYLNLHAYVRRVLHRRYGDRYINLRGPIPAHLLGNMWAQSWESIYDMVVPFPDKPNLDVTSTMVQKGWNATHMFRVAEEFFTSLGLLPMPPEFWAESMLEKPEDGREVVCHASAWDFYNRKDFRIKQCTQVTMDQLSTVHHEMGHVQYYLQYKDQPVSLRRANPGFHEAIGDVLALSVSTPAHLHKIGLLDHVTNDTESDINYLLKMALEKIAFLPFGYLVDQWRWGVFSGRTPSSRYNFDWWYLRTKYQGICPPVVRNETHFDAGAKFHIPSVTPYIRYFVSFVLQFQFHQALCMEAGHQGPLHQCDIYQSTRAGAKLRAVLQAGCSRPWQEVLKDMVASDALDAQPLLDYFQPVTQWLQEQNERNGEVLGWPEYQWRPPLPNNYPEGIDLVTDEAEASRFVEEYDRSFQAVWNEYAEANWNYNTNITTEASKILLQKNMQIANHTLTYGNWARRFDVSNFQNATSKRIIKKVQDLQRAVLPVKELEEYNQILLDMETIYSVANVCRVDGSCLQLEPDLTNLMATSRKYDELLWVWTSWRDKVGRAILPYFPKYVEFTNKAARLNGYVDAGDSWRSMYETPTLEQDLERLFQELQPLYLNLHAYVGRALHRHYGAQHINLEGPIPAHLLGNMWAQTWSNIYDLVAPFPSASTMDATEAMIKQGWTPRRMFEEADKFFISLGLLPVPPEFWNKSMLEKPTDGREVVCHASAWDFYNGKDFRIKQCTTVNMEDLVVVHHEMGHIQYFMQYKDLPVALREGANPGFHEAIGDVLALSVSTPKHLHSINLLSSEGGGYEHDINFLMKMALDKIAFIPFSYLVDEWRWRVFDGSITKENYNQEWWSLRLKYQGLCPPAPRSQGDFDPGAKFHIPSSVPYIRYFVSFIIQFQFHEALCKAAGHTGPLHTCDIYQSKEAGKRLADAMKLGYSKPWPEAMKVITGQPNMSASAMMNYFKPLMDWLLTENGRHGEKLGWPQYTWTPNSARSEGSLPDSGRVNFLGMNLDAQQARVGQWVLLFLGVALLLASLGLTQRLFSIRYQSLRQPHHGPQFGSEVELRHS
observable: IC50 (µM)

1) O=c1cc(-c2ccc(O)cc2)oc2cc(O)cc(O)c12.[K]
196

1. O=c1cc(-c2ccc(O)c(O)c2)oc2cc(O)cc(O)c12
2. C[C@@H]1O[C@@H](OC[C@H]2O[C@@H](Oc3c(-c4ccc(O)c(O)c4)oc4cc(O)cc(O)c4c3=O)[C@H](O)[C@@H](O)[C@@H]2O)[C@H](O)[C@H](O)[C@H]1O [Rutin, quercetin 3-O-glycoside]
3. C[C@@H]1O[C@@H](O[C@H]2[C@H](Oc3cc(O)c4c(=O)cc(-c5ccc(O)cc5)oc4c3)O[C@H](CO)[C@@H](O)[C@@H]2O)[C@H](O)[C@H](O)[C@H]1O [Rhoifolin, apigenin 7-O-glycoside]
// smallest IC50 at index 0, largest at the end Respond with the label ranking, as requested. 1, 2, 3
